Assign viability, T/C to each entry below.
Tested on: 475296-252-R-J1-PDC spheroid viability
Assay Details: Anticancer human tumor 475296-252-R-J1-PDC patient-derived rectal carcinoma cell line growth inhibition [PI3K]
Experimental Conditions: second compound 3.16 µM; first compound 0.01 µM; stronger effect = lower value; spheroids with HUVEC and MSC
Please respond with the number in % and leave the unit unwritten.

For CC(C)n1nc(-c2ccc3oc(N)nc3c2)c2c(N)ncnc21 + CC(Nc1ncnc2nc[nH]c12)c1cc2cccc(Cl)c2c(=O)n1-c1ccccc1 the compound record lists viability, T/C as 75.2

For CC(=O)c1c(C)c2cnc(Nc3ccc(N4CCNCC4)cn3)nc2n(C2CCCC2)c1=O + Cc1nc(NC(=O)N2CCCC2C(N)=O)sc1-c1ccnc(C(C)(C)C(F)(F)F)c1 the compound record lists viability, T/C as 99

For Cn1ncnc1[C@H]1c2n[nH]c(=O)c3cc(F)cc(c23)N[C@@H]1c1ccc(F)cc1 + CC(Nc1ncnc2nc[nH]c12)c1cc2cccc(Cl)c2c(=O)n1-c1ccccc1 the compound record lists viability, T/C as 80.7

For CCN1CCN(Cc2ccc(Nc3ncc(F)c(-c4cc(F)c5nc(C)n(C(C)C)c5c4)n3)nc2)CC1 + CC(Nc1ncnc2nc[nH]c12)c1cc2cccc(Cl)c2c(=O)n1-c1ccccc1 the compound record lists viability, T/C as 99.3

For CC(C)n1nc(-c2ccc3oc(N)nc3c2)c2c(N)ncnc21 + Cc1nc(NC(=O)N2CCCC2C(N)=O)sc1-c1ccnc(C(C)(C)C(F)(F)F)c1 the compound record lists viability, T/C as 77.5

For Cn1ncnc1[C@H]1c2n[nH]c(=O)c3cc(F)cc(c23)N[C@@H]1c1ccc(F)cc1 + Cc1nc(NC(=O)N2CCCC2C(N)=O)sc1-c1ccnc(C(C)(C)C(F)(F)F)c1 the compound record lists viability, T/C as 87.7

For CC(=O)c1c(C)c2cnc(Nc3ccc(N4CCNCC4)cn3)nc2n(C2CCCC2)c1=O + CC(Nc1ncnc2nc[nH]c12)c1cc2cccc(Cl)c2c(=O)n1-c1ccccc1 the compound record lists viability, T/C as 97.7

For CCN1CCN(Cc2ccc(Nc3ncc(F)c(-c4cc(F)c5nc(C)n(C(C)C)c5c4)n3)nc2)CC1 + Cc1nc(NC(=O)N2CCCC2C(N)=O)sc1-c1ccnc(C(C)(C)C(F)(F)F)c1 the compound record lists viability, T/C as 108

* * *

Assign viability, T/C to each entry below.
Tested on: 475296-252-R-J1-PDC spheroid viability
Assay Details: Anticancer human tumor 475296-252-R-J1-PDC cell line growth inhibition [PI3K];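 further: spheroids exposed to agents for seven days before readout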
Experimental Conditions: second compound 1 µM; first compound 3.16 µM; stronger effect = lower value; spheroids with HUVEC and MSC
Please respond with the number in % and leave the unit unwritten.

For CC1(C)CCC(Nc2ncc(C(F)(F)F)c(-c3c[nH]c4c(P(C)(C)=O)c(C#N)ccc34)n2)CN1 (stereo not given) + CC(Nc1ccc2c(c1)OCCn1cc(N3C(=O)OCC3C(F)F)nc1-2)C(N)=O the compound record lists viability, T/C as 113

For Cn1nccc1Nc1nccc(-c2ccn(C(CO)c3ccc(Cl)c(F)c3)c(=O)c2)n1 (stereo not given) + Cc1nc(NC(=O)N2CCCC2C(N)=O)sc1-c1ccnc(C(C)(C)C(F)(F)F)c1 the compound record lists viability, T/C as 88

For C#Cc1c(F)ccc2cc(O)cc(-c3ncc4c(N5CC6CCC(C5)N6)nc(OCC56CCCN5CC(F)C6)nc4c3F)c12 (stereo not given) + Cc1nc(NC(=O)N2CCCC2C(N)=O)sc1-c1ccnc(C(C)(C)C(F)(F)F)c1 the compound record lists viability, T/C as 60.3

For CC(Cn1ccc(-c2ccc(C#N)c(Cl)c2)n1)NC(=O)c1cc(C(C)O)[nH]n1 (stereo not given) + Cc1nc(NC(=O)N2CCCC2C(N)=O)sc1-c1ccnc(C(C)(C)C(F)(F)F)c1 the compound record lists viability, T/C as 111

For CNC(=O)c1ccc(N2C(=S)N(c3ccc(C#N)c(C(F)(F)F)c3)C(=O)C2(C)C)cc1F + CC(Nc1ccc2c(c1)OCCn1cc(N3C(=O)OCC3C(F)F)nc1-2)C(N)=O the compound record lists viability, T/C as 94.3

* * *

Test system: 475296-252-R-J1-PDC spheroid viability
Assay Details: Anticancer human tumor 475296-252-R-J1-PDC cell line growth inhibition [PI3K];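 further: spheroids exposed to agents for seven days before readout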
Experimental Conditions: second compound 0.1 µM; first compound 1 µM; stronger effect = lower value; spheroids with HUVEC and MSC
Quantity Kind: viability, T/C (%)
Please respond with the number in % and leave the unit unwritten.

For Cn1ncc(Cl)c1-c1cc(C(=O)NC(CN)Cc2cccc(F)c2)sc1Cl (stereo not given) + COc1c(OCCCN2CCOCC2)ccc2c3n(c(=NC(=O)c4cnc(N)nc4)nc12)CCN3 the molecule record lists viability, T/C as 56.4

For CNC(=O)c1ccc(N2C(=S)N(c3ccc(C#N)c(C(F)(F)F)c3)C(=O)C2(C)C)cc1F + CC(Nc1ccc2c(c1)OCCn1cc(N3C(=O)OCC3C(F)F)nc1-2)C(N)=O the molecule record lists viability, T/C as 100

For CC1(C)CCC(Nc2ncc(C(F)(F)F)c(-c3c[nH]c4c(P(C)(C)=O)c(C#N)ccc34)n2)CN1 (stereo not given) + CC(Nc1ncnc2nc[nH]c12)c1cc2cccc(Cl)c2c(=O)n1-c1ccccc1 the molecule record lists viability, T/C as 117

For Cn1ncc(Cl)c1-c1cc(C(=O)NC(CN)Cc2cccc(F)c2)sc1Cl (stereo not given) + Cc1nc(NC(=O)N2CCCC2C(N)=O)sc1-c1ccnc(C(C)(C)C(F)(F)F)c1 the molecule record lists viability, T/C as 54

For CC1(C)CCC(CN2CCN(c3ccc(C(=O)NS(=O)(=O)c4ccc(NCC5CCOCC5)c([N+](=O)[O-])c4)c(Oc4cnc5[nH]ccc5c4)c3)CC2)=C(c2ccc(Cl)cc2)C1 + CC(Nc1ccc2c(c1)OCCn1cc(N3C(=O)OCC3C(F)F)nc1-2)C(N)=O the molecule record lists viability, T/C as 97.1

For C[C@@H](NC(=O)c1ncnc(N)c1Cl)c1ncc(C(=O)Nc2cc(C(F)(F)F)c(Cl)cn2)s1 + Cc1nc(NC(=O)N2CCCC2C(N)=O)sc1-c1ccnc(C(C)(C)C(F)(F)F)c1 the molecule record lists viability, T/C as 91.7

For CNC(=O)c1ccc(N2C(=S)N(c3ccc(C#N)c(C(F)(F)F)c3)C(=O)C2(C)C)cc1F + CC(Nc1ncnc2nc[nH]c12)c1cc2cccc(Cl)c2c(=O)n1-c1ccccc1 the molecule record lists viability, T/C as 109

For C#Cc1c(F)ccc2cc(O)cc(-c3ncc4c(N5CC6CCC(C5)N6)nc(OCC56CCCN5CC(F)C6)nc4c3F)c12 (stereo not given) + COc1c(OCCCN2CCOCC2)ccc2c3n(c(=NC(=O)c4cnc(N)nc4)nc12)CCN3 the molecule record lists viability, T/C as 23

For CC1(C)CCC(Nc2ncc(C(F)(F)F)c(-c3c[nH]c4c(P(C)(C)=O)c(C#N)ccc34)n2)CN1 (stereo not given) + Cc1nc(NC(=O)N2CCCC2C(N)=O)sc1-c1ccnc(C(C)(C)C(F)(F)F)c1 the molecule record lists viability, T/C as 142

For C=CC(=O)N1CCN(c2nc(=O)n(-c3c(C)ccnc3C(C)C)c3nc(-c4c(O)cccc4F)c(F)cc23)C(C)C1 (stereo not given) + COc1c(OCCCN2CCOCC2)ccc2c3n(c(=NC(=O)c4cnc(N)nc4)nc12)CCN3 the molecule record lists viability, T/C as 97.8

* * *

System: 475296-252-R-J1-PDC spheroid viability
Assay Details: Anticancer human tumor 475296-252-R-J1-PDC cell line growth inhibition [PI3K];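 further: spheroids exposed to agents for seven days before readout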
Experimental Conditions: second compound 0.00316 µM; first compound 0.1 µM; stronger effect = lower value; spheroids with HUVEC and MSC
Text: Combinatorial screen of targeted agents with the PI3K inhibitors inavolisib, alpelisib, duvelisib, and copanlisib in multi-cell type tumor spheroids A high-throughput screen of multi-cell type tumor spheroids was designed to identify active combinations of targeted small molecules and PI3K pathway inhibitors. […] Compounds. […] If the clinical Cmax for an agent had not been determined, the highest concentration tested was 10 microM. […]
Quantity Kind: viability, T/C (%)
Please respond with the number in % and leave the unit unwritten.

For CNC(=O)c1ccc(N2C(=S)N(c3ccc(C#N)c(C(F)(F)F)c3)C(=O)C2(C)C)cc1F + COc1c(OCCCN2CCOCC2)ccc2c3n(c(=NC(=O)c4cnc(N)nc4)nc12)CCN3 the molecule record lists viability, T/C as 107

For CNC(=O)c1ccc(N2C(=S)N(c3ccc(C#N)c(C(F)(F)F)c3)C(=O)C2(C)C)cc1F + CC(Nc1ccc2c(c1)OCCn1cc(N3C(=O)OCC3C(F)F)nc1-2)C(N)=O the molecule record lists viability, T/C as 85

For CC(C)n1nc(-c2ccc3oc(N)nc3c2)c2c(N)ncnc21 + CC(Nc1ccc2c(c1)OCCn1cc(N3C(=O)OCC3C(F)F)nc1-2)C(N)=O the molecule record lists viability, T/C as 58.7

For C[C@@H](NC(=O)c1ncnc(N)c1Cl)c1ncc(C(=O)Nc2cc(C(F)(F)F)c(Cl)cn2)s1 + CC(Nc1ccc2c(c1)OCCn1cc(N3C(=O)OCC3C(F)F)nc1-2)C(N)=O the molecule record lists viability, T/C as 84

For Cn1nccc1Nc1nccc(-c2ccn(C(CO)c3ccc(Cl)c(F)c3)c(=O)c2)n1 (centres undefined) + CC(Nc1ccc2c(c1)OCCn1cc(N3C(=O)OCC3C(F)F)nc1-2)C(N)=O the molecule record lists viability, T/C as 92.8

For C=CC(=O)N1CCN(c2nc(=O)n(-c3c(C)ccnc3C(C)C)c3nc(-c4c(O)cccc4F)c(F)cc23)C(C)C1 (centres undefined) + CC(Nc1ccc2c(c1)OCCn1cc(N3C(=O)OCC3C(F)F)nc1-2)C(N)=O the molecule record lists viability, T/C as 89.9

For CCN1CCN(Cc2ccc(Nc3ncc(F)c(-c4cc(F)c5nc(C)n(C(C)C)c5c4)n3)nc2)CC1 + CC(Nc1ccc2c(c1)OCCn1cc(N3C(=O)OCC3C(F)F)nc1-2)C(N)=O the molecule record lists viability, T/C as 86.2

For CC(Cn1ccc(-c2ccc(C#N)c(Cl)c2)n1)NC(=O)c1cc(C(C)O)[nH]n1 (centres undefined) + CC(Nc1ccc2c(c1)OCCn1cc(N3C(=O)OCC3C(F)F)nc1-2)C(N)=O the molecule record lists viability, T/C as 96.5

For C[C@@H](NC(=O)c1ncnc(N)c1Cl)c1ncc(C(=O)Nc2cc(C(F)(F)F)c(Cl)cn2)s1 + COc1c(OCCCN2CCOCC2)ccc2c3n(c(=NC(=O)c4cnc(N)nc4)nc12)CCN3 the molecule record lists viability, T/C as 88
